Can you tell me pIC50 for the items I'm about to list?
# assayedSystem: Plasmepsin II (Plasmodium falciparum)
# Sequence (P46925 whole entry): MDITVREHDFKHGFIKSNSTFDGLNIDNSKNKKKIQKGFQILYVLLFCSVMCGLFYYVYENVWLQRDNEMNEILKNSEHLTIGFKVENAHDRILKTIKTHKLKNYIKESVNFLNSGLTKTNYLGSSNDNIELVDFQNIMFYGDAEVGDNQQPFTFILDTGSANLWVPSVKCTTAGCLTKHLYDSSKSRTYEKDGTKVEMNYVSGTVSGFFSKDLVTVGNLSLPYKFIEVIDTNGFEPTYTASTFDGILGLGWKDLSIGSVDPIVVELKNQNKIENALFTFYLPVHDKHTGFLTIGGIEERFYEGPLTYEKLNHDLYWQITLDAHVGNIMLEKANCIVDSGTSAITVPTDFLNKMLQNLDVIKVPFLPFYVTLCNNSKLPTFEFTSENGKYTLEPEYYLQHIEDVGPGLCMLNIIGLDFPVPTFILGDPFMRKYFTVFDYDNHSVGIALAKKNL
# log scale: pIC50 equals minus log10 of the concentration in mol/L

Report pIC50 for "COc1ccc(C(=O)Cn2c(-c3ccccn3)nc3ccccc32)cc1" please.
4.42

Another: "O=C(Cn1c(-c2ccccn2)nc2ccccc21)c1ccc(F)cc1"
5.00

Now try "O=C(Cn1c(-c2ccccn2)nc2ccccc21)c1ccc(O)c(O)c1" .
4.71

Consider next the compound "COc1ccc(OC)c(C(=O)Cn2c(-c3ccccn3)nc3ccccc32)c1" in the same way.
4.47

Input "O=C(Cn1c(-c2ccccn2)nc2ccccc21)c1cccc([N+](=O)[O-])c1"
4.69

Again, but for "O=C(Cn1c(-c2ccccn2)nc2ccccc21)c1ccc([N+](=O)[O-])cc1"
4.52

Request: "O=C(Cn1c(-c2ccccn2)nc2ccccc21)c1ccccc1"
5.00

Field entry: "O=C(Cn1c(-c2ccccn2)nc2ccccc21)c1ccc(F)cc1F"
4.32
